Catalogue of Mean % WT Binding readings, one per entry.
Subject Of Test: human CD33 A293S (human, UniProt P20138 18-364)
Sequence (P20138 18-364 A293S limits assumed): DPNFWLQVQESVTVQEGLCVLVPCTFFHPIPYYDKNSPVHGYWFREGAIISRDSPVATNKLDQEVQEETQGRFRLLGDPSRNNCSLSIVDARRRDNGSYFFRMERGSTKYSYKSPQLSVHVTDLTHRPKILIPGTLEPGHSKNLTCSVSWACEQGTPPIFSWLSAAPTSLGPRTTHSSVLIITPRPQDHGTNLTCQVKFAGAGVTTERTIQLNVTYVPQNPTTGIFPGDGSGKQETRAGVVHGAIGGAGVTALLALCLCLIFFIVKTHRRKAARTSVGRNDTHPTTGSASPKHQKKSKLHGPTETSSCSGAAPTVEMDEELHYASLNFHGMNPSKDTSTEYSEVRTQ
Experimental Protocol: alanine scan, flow cytometry, HEK293-T;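 further: antibody binding to each alanine-substituted CD33 mutant expressed transiently in HEK293-T, read as fluorescence minus background, mean of duplicates, relative to wild-type CD33 set as 100%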

Binder | Readout Unit | Mean % WT Binding
Refmab #3 (antibody, V domains shown, The alanine scan used IgG or Fab) VH: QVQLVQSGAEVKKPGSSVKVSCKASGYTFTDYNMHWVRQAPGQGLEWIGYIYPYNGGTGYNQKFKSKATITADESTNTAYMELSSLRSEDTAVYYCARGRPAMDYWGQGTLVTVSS VL: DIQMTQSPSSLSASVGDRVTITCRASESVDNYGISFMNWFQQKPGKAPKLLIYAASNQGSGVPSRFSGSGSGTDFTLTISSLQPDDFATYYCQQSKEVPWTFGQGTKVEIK | % WT binding | 72.9
Refmab #4 (antibody, V domains shown, The alanine scan used IgG or Fab) VH: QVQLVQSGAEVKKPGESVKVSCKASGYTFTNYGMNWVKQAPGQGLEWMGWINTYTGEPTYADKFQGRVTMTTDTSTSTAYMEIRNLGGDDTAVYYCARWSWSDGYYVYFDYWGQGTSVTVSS VL: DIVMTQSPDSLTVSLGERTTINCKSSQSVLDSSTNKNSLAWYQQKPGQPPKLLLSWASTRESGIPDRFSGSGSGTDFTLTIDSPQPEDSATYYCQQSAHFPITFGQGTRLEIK | % WT binding | 106
Refmab #2 (antibody, V domains shown, The alanine scan used IgG or Fab) VH: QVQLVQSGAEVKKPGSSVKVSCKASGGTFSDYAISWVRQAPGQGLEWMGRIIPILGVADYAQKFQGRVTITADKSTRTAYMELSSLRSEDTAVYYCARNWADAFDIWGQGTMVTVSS VL: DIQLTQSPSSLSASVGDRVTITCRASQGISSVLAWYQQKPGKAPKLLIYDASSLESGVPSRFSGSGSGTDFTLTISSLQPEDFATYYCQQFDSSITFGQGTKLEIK | % WT binding | 114
Refmab #1 (antibody, V domains shown, The alanine scan used IgG or Fab; also called hP67.6) VH: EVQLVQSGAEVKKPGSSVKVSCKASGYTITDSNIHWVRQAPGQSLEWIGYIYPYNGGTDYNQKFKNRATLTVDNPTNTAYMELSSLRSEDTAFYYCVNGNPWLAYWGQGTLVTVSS VL: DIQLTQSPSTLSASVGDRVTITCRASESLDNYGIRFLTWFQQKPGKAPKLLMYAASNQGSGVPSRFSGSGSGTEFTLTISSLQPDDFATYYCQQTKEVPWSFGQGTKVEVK | % WT binding | 90.6
